Hey, just so you know, these numbers are from patent US20140147868A1.

molecular target: bovine serum albumin (bovine) (UniProt P02769); assay: phage ELISA, BSA only, 10^9 phagemid per well
Sequence (P02769 25-607 limits assumed): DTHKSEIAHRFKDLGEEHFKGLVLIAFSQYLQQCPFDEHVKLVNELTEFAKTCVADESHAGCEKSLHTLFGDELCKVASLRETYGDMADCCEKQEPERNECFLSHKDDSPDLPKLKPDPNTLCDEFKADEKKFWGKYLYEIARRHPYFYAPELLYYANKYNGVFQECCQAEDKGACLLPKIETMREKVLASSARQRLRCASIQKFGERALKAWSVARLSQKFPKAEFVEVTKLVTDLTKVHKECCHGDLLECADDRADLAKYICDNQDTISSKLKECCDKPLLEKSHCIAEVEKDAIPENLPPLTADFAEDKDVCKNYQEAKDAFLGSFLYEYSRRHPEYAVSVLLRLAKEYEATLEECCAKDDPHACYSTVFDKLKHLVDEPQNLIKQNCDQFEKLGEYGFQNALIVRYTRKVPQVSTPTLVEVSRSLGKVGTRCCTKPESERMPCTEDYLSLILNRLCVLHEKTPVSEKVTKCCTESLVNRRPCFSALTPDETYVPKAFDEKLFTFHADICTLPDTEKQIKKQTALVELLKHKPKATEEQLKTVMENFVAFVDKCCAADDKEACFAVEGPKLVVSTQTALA
Positions of bridges follow the written chain, without caps; N, C: chain ends. No end group written: not given here.
Measure name: ELISA (absorbance units) (absorbance units)
Answers are plain numbers.

Ask | Name the reported ELISA (absorbance units) (absorbance units) value associated with the binder CSFFYSLCYCWCS (disulfide (positions not given here); also: four Cys, disulfide pairing not given here) [phagemid CS1-31p (phage-displayed disulfide cyclized 13 mer peptide)]
Reply | 0.114

Ask | Name the reported ELISA (absorbance units) (absorbance units) value associated with the binder CSGLYPWDYFMCS (disulfide 1-12 (inferred); also: displayed on phage (phagemid)) [phagemid CS1-29p (phage-displayed disulfide cyclized 13 mer peptide)]
Reply | 0.147

Ask | Name the reported ELISA (absorbance units) (absorbance units) value associated with the binder CSFRYLWDQDRCS (disulfide 1-12 (inferred); also: displayed on phage (phagemid)) [phagemid CS1-6p (phage-displayed disulfide cyclized 13 mer peptide)]
Reply | 0.27

Ask | Name the reported ELISA (absorbance units) (absorbance units) value associated with the binder CSFRYQWDMFRCS (disulfide 1-12 (inferred); also: displayed on phage (phagemid)) [phagemid CS1-11p (phage-displayed disulfide cyclized 13 mer peptide)]
Reply | 0.278

Ask | Name the reported ELISA (absorbance units) (absorbance units) value associated with the binder CSGLYPWDMFRCS (disulfide 1-12 (inferred); also: displayed on phage (phagemid)) [phagemid CS1-9p (phage-displayed disulfide cyclized 13 mer peptide)]
Reply | 0.22

Turning to the following binder.
Ask | Name the reported ELISA (absorbance units) (absorbance units) value associated with the binder CSLFYLWDQDRCS (disulfide 1-12 (inferred); also: displayed on phage (phagemid), coat fusion not given here) [phagemid CS1-2p (phage-displayed disulfide cyclized 13 mer peptide)]
Reply | 0.277
